System: DU-145 prostate
Experiment: NCI tumour cell line growth inhibition, 48 h; in the data active = GI50 below about 0.43 µM; inactive = the rest
Choose the fitting class; nothing outside active, inactive is accepted.

Query: Assay result, entry COCOc1cc2c(=O)c(C)c(C(=O)N[C@@H](Cc3ccccc3)C(O)C(=O)NCc3ccccc3)oc2cc1OC (some centres undefined) — outcome?
Response: inactive

Query: Assay result, entry `O=C(Nc1ccc(OCc2ccc(Cl)cc2)cc1)Nc1ccc(Cl)c(C(F)(F)F)c1` — outcome?
Response: inactive

Query: Assay result, entry `Cn1cc(-c2nc(N)nnc2-c2c[nH]c3ccc(F)cc23)c2cc(Br)cnc21` — outcome?
Response: active

Query: Assay result, entry COc1cc(C2C(C(=O)OCc3ccccc3)=C(C)Nc3nc4ccccc4n32)cc(OC)c1OC (centres undefined) — outcome?
Response: inactive
